Just for reference, ChEMBL document CHEMBL1126292 is where these values come from.

Measured Selectivity index, listed per entry for reference.
Tested on: Rattus norvegicus
Method description: Ratio of the dose (D500, peroral administration) elevating the rat heart rate to 500 bpm and GDP ED50.
Type: functional

Compound: O=C(COc1ccc(OCCNCC(O)COc2ccccc2)cc1)NCc1ccccc1 (stereo unspecified)
System name: Rattus norvegicus
Selectivity index: >100
--
Compound: CNC(=O)COc1ccc(OCC(C)NCC(O)COc2ccccc2)cc1 (stereo unspecified)
System name: Rattus norvegicus
Selectivity index: >10
--
Compound: NC(=O)CNC(=O)COc1ccc(OCCNCC(O)COc2ccccc2)cc1 (stereo unspecified)
System name: Rattus norvegicus
Selectivity index: >50
--
Compound: CN(C)C(=O)COc1ccc(OCCNCC(O)COc2ccccc2)cc1 (stereo unspecified)
System name: Rattus norvegicus
Selectivity index: >50
--
Compound: CCNC(=O)COc1ccc(OCCNCC(O)COc2ccccc2)cc1 (stereo unspecified)
System name: Rattus norvegicus
Selectivity index: >100
--
Compound: NC(=O)COc1ccc(OCCNCC(O)COc2ccccc2F)cc1 (stereo unspecified)
System name: Rattus norvegicus
Selectivity index: >10

I'm curious: which Selectivity index was measured for O=C(COc1ccc(OCCNC[C@H](O)COc2ccccc2)cc1)NCCO tested on Rattus norvegicus? >50

Likewise for O=C(COc1ccc(OCCNCC(O)COc2ccccc2)cc1)NCCO (stereo unspecified) ? >100

Record: O=C(COc1ccc(OCCNCC(O)COc2ccccc2)cc1)N1CCCCC1 (stereo unspecified) >100

Do the same for O=C(COc1ccc(OCCNCC(O)COc2ccccc2)cc1)NCCCO (stereo unspecified) please >100

Entry to check: CC(CO)NC(=O)COc1ccc(OCCNCC(O)COc2ccccc2)cc1.O (stereo unspecified) >50

###

Each entry below carries its reported GDP ED50.
System name: UniProt:P26255
Method description: Stimulation of GDP binding against beta-3 adrenergic receptor in brown adipose tissue (BAT) mitochondria of rats after peroral administration (Dose necessary to produce 50% of the isoprenaline effect).
Your answer is read as mg/kg, so omit the unit and give the number.

Compound: CC(CO)NC(=O)COc1ccc(OCCNCC(O)COc2ccccc2)cc1.O (configuration not stated)
Unit spec: mg/kg
GDP ED50: 0.85

Compound: O=C(COc1ccc(OCCNCC(O)COc2ccccc2)cc1)NCCc1ccccc1 (configuration not stated)
Unit spec: mg/kg
GDP ED50: 1.23

Compound: O=C(COc1ccc(OCCNCC(O)COc2ccccc2)cc1)Nc1ccccc1 (configuration not stated)
Unit spec: mg/kg
GDP ED50: 1.38

Compound: CNC(=O)COc1ccc(OCCNCC(O)COc2ccccc2F)cc1 (configuration not stated)
Unit spec: mg/kg
GDP ED50: 1.1

Compound: O=C(COc1ccc(OCCNCC(O)COc2ccccc2)cc1)N1CCc2ccccc2C1 (configuration not stated)
Unit spec: mg/kg
GDP ED50: 0.44

Field request: GDP ED50 | item: O=C(COc1ccc(OCCNCC(O)COc2ccccc2)cc1)NCCCO (configuration not stated) 0.47

###

System name: Beta-3 adrenergic receptor (Rattus norvegicus) (UniProt P26255)
Sequence (P26255 whole entry): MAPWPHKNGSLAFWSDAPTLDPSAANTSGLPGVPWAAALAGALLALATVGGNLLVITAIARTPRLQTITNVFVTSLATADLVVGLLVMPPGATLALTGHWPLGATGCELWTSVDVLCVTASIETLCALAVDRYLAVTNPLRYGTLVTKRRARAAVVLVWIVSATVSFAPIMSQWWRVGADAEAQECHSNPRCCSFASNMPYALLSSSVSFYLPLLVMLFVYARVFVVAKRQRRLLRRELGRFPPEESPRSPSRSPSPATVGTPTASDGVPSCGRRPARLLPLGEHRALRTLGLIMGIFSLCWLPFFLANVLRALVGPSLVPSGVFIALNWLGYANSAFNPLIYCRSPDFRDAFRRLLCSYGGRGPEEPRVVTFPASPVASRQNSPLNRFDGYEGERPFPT
Method description: Stimulation of GDP binding against beta-3 adrenergic receptor in brown adipose tissue (BAT) mitochondria of rats after peroral administration (Dose necessary to produce 50% of the isoprenaline effect).
Reported metric: GDP ED50 (mg/kg)
Return type: number; implicit unit mg/kg.

Example results:
Molecule: O=C(COc1ccc(OCCNCC(O)COc2ccccc2)cc1)NCc1ccco1 (stereo unspecified)
GDP ED50, mg/kg: 1.53

Molecule: CNC(=O)COc1ccc(OCC(C)NCC(O)COc2ccccc2)cc1 (stereo unspecified)
GDP ED50, mg/kg: 0.25

Molecule: C=CCNC(=O)COc1ccc(OCC(C)NCC(O)COc2ccccc2)cc1 (stereo unspecified)
GDP ED50, mg/kg: 1.03

GDP ED50 lookup needed for O=C(COc1ccc(OCCNC[C@H](O)COc2ccccc2)cc1)NCCO , thanks. 0.77

Next molecule: CNC(=O)COc1cccc(OCCNCC(O)COc2ccccc2)c1 (stereo unspecified) 0.31

And what about the molecule NNC(=O)COc1ccc(OCCNCC(O)COc2ccccc2)cc1 (stereo unspecified) ? 1.15

###

The reader will find reported Selectivity index values listed item by item below.
Test system: Rattus norvegicus
Method description: Ratio of the dose (D500, peroral administration) elevating the rat heart rate to 500 bpm and GDP ED50.
Assay type: functional

Previously resolved entries follow.
Compound: CNC(=O)COc1ccc(OCCNCC(O)COc2ccccc2F)cc1 (centres undefined)
Recorded result: >50

Compound: O=C(COc1ccc(OCCNCC(O)COc2ccccc2)cc1)NC1CC1 (centres undefined)
Recorded result: >50

Compound: O=C(COc1ccc(OCCNCC(O)COc2ccccc2)cc1)N1CCc2ccccc2C1 (centres undefined)
Recorded result: >100

Continue with the next compound.
Quick check: Selectivity index of COCCCNC(=O)COc1ccc(OCCNCC(O)COc2ccccc2)cc1 (centres undefined) ? >100

###

System name: Beta-3 adrenergic receptor (Rattus norvegicus)
Method description: Stimulation of GDP binding against beta-3 adrenergic receptor in brown adipose tissue (BAT) mitochondria of rats after peroral administration (Dose necessary to produce 50% of the isoprenaline effect).
Doc: threshold 0.5 mg/kg (exclusive). Items with GDP ED50 beneath it return Satisfied; others return Not satisfied.

Molecule: O=C(COc1ccc(OCCNCC(O)COc2ccccc2)cc1)NC1CC1 (configuration not stated)
Assigned class: Not satisfied
--
Molecule: CCN(CC)C(=O)COc1ccc(OCCNCC(O)COc2ccccc2)cc1 (configuration not stated)
Assigned class: Not satisfied
--
Molecule: O=C(COc1ccc(OCCNCC(O)COc2ccccc2)cc1)N1CCCCC1 (configuration not stated)
Assigned class: Satisfied
--
Molecule: CC(C)CNC(=O)COc1ccc(OCCNCC(O)COc2ccccc2)cc1 (configuration not stated)
Assigned class: Not satisfied

Dear colleague, could you confirm whether GDP ED50 of NC(=O)COc1ccc(OCCNCC(O)COc2ccccc2)cc1 (configuration not stated) falls below 0.5 mg/kg? Thanks. Satisfied

Follow-up entry: O=C(COc1ccc(OCCNCC(O)COc2ccccc2)cc1)NOCc1ccccc1 (configuration not stated) Satisfied

Next record, please: CN(C)C(=O)COc1ccc(OCCNCC(O)COc2ccccc2)cc1 (configuration not stated) Not satisfied

###

System name: Beta-3 adrenergic receptor (Rattus norvegicus) (UniProt P26255)
Method description: Stimulation of GDP binding against beta-3 adrenergic receptor in brown adipose tissue (BAT) mitochondria of rats after peroral administration (Dose necessary to produce 50% of the isoprenaline effect).
Rule for this label: satisfied means GDP ED50 is less than 0.7 mg/kg; not satisfied means GDP ED50 is at least 0.7 mg/kg.

Take a look at these entries with their results.
Molecule: CCNC(=O)COc1ccc(OCCNCC(O)COc2ccccc2)cc1 (stereo unspecified)
Assigned class: satisfied
--
Molecule: CNC(=O)COc1ccc(OCCNCC(O)COc2ccccc2)cc1 (stereo unspecified)
Assigned class: not satisfied
--
Molecule: NC(=O)COc1ccc(OCCNCC(O)COc2ccccc2F)cc1 (stereo unspecified)
Assigned class: not satisfied

Confirm or reject: GDP ED50 of COCCNC(=O)COc1ccc(OCCNC[C@H](O)COc2ccc(O)cc2)cc1 lies strictly below 0.7 mg/kg not satisfied

Entry CC(NC(=O)COc1ccc(OCCNCC(O)COc2ccccc2)cc1)c1ccccc1 (stereo unspecified) please not satisfied

Next entry: O=C(COc1ccc(OCCNCC(O)COc2ccccc2F)cc1)N1CCCCC1 (stereo unspecified) not satisfied

And for O=C(COc1ccc(OCCNCC(O)COc2ccccc2)cc1)NO (stereo unspecified) ? satisfied

###

Test system: Rattus norvegicus
Method description: Ratio of the dose (D500, peroral administration) elevating the rat heart rate to 500 bpm and GDP ED50.
Assay type: functional
Reported metric: Selectivity index

A selection of reference data follows.
Molecule: O=C(COc1ccc(OCCNCC(O)COc2ccccc2)cc1)NC1CCCC1 (stereo not given)
Selectivity index: >10
//
Molecule: CNC(=O)COc1ccc(OCCNC[C@H](O)COc2ccccc2)cc1
Selectivity index: >100
//
Molecule: C=CCNC(=O)COc1ccc(OCC(C)NCC(O)COc2ccccc2)cc1 (stereo not given)
Selectivity index: >20
//
Molecule: C=CCNC(=O)COc1ccc(OCCNCC(O)COc2ccccc2)cc1 (stereo not given)
Selectivity index: >100
//
Molecule: O=C(COc1ccc(OCCNCC(O)COc2ccccc2)cc1)NCCc1ccccc1 (stereo not given)
Selectivity index: >50

Please look up its Selectivity index: CCN(CC)C(=O)COc1ccc(OCCNCC(O)COc2ccccc2)cc1 (stereo not given) 33

Repeat with O=C(COc1ccc(OCCNCC(O)COc2ccccc2)cc1)N1CCCC1 (stereo not given) >50

Now try CCCNC(=O)COc1ccc(OCCNCC(O)COc2ccccc2)cc1 (stereo not given) . >100

One more molecule: CC(NC(=O)COc1ccc(OCCNCC(O)COc2ccccc2)cc1)c1ccccc1 (stereo not given) >10

Then this molecule: CCCCNC(=O)COc1ccc(OCCNCC(O)COc2ccccc2)cc1 (stereo not given) >100

How about O=C(COc1ccc(OCCNCC(O)COc2ccccc2)cc1)N1CCOCC1 (stereo not given) ? >100

Note, next up: O=C(COc1ccc(OCCNCC(O)COc2ccccc2)cc1)NO (stereo not given) >100

How about O=C(COc1ccc(OCCNCC(O)COc2ccccc2)cc1)NCCOc1ccccc1 (stereo not given) ? >100

O=C(COc1ccc(OCCNCC(O)COc2ccccc2)cc1)NCc1ccc(Cl)cc1 (stereo not given) , same question. >50

Another molecule to look at: CC(C)NC(=O)COc1ccc(OCCNCC(O)COc2ccccc2)cc1 (stereo not given) >100
